Target: Glutamate [NMDA] receptor
Assay: In vitro binding affinity against N-methyl-D-aspartate glutamate receptor using [3H]-[…] as radioligand
Format: protein-complex assay
pIC50: −log10 of the molar value.
METRIC NAME: pIC50

Illustrative cases are given below, each with its answer.
Cn1ccnc1-c1onc(O)c1CC(N)C(=O)O (stereo not drawn) :: < 4.00
Cn1cnc(-c2onc(O)c2CC(N)C(=O)O)n1 (stereo not drawn) :: < 4.00

Problem: Item: NC(Cc1c(O)noc1-c1nccs1)C(=O)O (stereo not drawn) Test system: Glutamate [NMDA] receptor Read-out: pIC50 Value: ?
Result: < 4.00

----------
Assay: pKa value determined by potentiometric titrations. 5.1 is the equivalence volume; initial titrant volume is 9.4
Assay type: physicochemical
METRIC NAME: pKa
Please reply with the value in numeric form only.

Problem: What measured pKa goes with Cn1nnnc1-c1onc(O)c1CC(N)C(=O)O (stereo unspecified) ?
Result: 3.7

----------
Experiment: pKa value determined by potentiometric titrations. 4.6 is the equivalence volume; initial titrant volume is 10.2
Type: physicochemical
METRIC NAME: pKa

Problem: What measured pKa goes with NC(Cc1c(O)noc1-c1nc[nH]n1)C(=O)O (stereo unspecified) ?
Result: < 2.4

----------
Assay: pKa value determined by potentiometric titrations. 4.9 is the equivalence volume; initial titrant volume is 9.7
Type: physicochemical
METRIC NAME: pKa

Problem: What measured pKa goes with NC(Cc1c(O)noc1-c1ncc[nH]1)C(=O)O (stereo unspecified) ?
Result: < 3.4

----------
Assay: pKa value determined by potentiometric titrations. 5 is the equivalence volume; initial titrant volume is 9.6
Type: physicochemical
METRIC NAME: pKa
Please reply with the value in numeric form only.

Problem: What measured pKa goes with Cn1nnc(-c2onc(O)c2CC(N)C(=O)O)n1 (stereo unspecified) ?
Result: 2.9

----------
Assay: pKa value determined by potentiometric titrations. 5 is the equivalence volume; initial titrant volume is 9.7
Format: physicochemical
METRIC NAME: pKa

Problem: What measured pKa goes with NC(Cc1c(O)noc1-c1nn[nH]n1)C(=O)O (stereo unspecified) ?
Result: < 3

----------
Target: Glutamate receptor ionotropic kainate
Hi! Could you tag entries with IC50 below 40 µM as class 1, and those at or above as class 0? Much appreciated.

Past entries and their recorded results:
NC(Cc1c(O)noc1-c1nc[nH]n1)C(=O)O (centres undefined) :: class 0
Cn1ccnc1-c1onc(O)c1CC(N)C(=O)O (centres undefined) :: class 0
Cn1nnnc1-c1onc(O)c1CC(N)C(=O)O (centres undefined) :: class 0
NC(Cc1c(O)noc1-c1ncc[nH]1)C(=O)O (centres undefined) :: class 0

Problem: Field: below-cutoff. Rule: recorded IC50 strictly less than 40 µM. Subject: NC(Cc1c(O)noc1-c1nccs1)C(=O)O (centres undefined)
Result: class 1

----------
Test: pKa value determined by potentiometric titrations. 5.3 is the equivalence volume; initial titrant volume is 9.8
Assay type: physicochemical
METRIC NAME: pKa

Problem: What measured pKa goes with Cn1ccnc1-c1onc(O)c1CC(N)C(=O)O (stereo unspecified) ?
Result: < 3.4

----------
Target: Glutamate receptor ionotropic AMPA (Rattus norvegicus)
METRIC NAME: pIC50
API: returns pIC50 as number; meaning -log10 of concentration in mol/L.

Illustrative cases are given below, each with its answer.
Cn1nnnc1-c1onc(O)c1CC(N)C(=O)O (stereo not drawn) :: 4.27
NC(Cc1c(O)noc1-c1ncc[nH]1)C(=O)O (stereo not drawn) :: 4.32
Cn1ncnc1-c1onc(O)c1CC(N)C(=O)O (stereo not drawn) :: 5.24

Problem: What measured pIC50 goes with Cn1cnc(-c2onc(O)c2CC(N)C(=O)O)n1 (stereo not drawn) ?
Result: 6.15

Problem: Same for NC(Cc1c(O)noc1-c1nn[nH]n1)C(=O)O (stereo not drawn)
Result: 4.14

Problem: Same for NC(Cc1c(O)noc1-c1nc[nH]n1)C(=O)O (stereo not drawn)
Result: 5.82

Problem: Same for NC(Cc1c(O)noc1-c1nccs1)C(=O)O (stereo not drawn)
Result: 7.03

Where do these numbers come from? They come from ChEMBL document CHEMBL1130350.
